experimentalProtocol: Gibbs energy of hydration and Henry's law volatility constant calculated from sublimation and solubility data
settings: 25 °C, value is KHpc multiplied by 10^3
Classification field: enter fulfilled for KHpc×10^3 Henry's law volatility constant values not below 2 kPa·m^3·mol^−1, not fulfilled for values below it.

INSERT INTO results (chemicalstructure, discretelabel) VALUES
  ('O=Cc1cccc(Cl)c1Cl', 'fulfilled');

[Q] // inclusive: KHpc×10^3 Henry's law volatility constant at least 2 kPa·m^3·mol^−1? input: O=Cc1c(Cl)cccc1Cl
[A] not fulfilled

[Q] O=Cc1ccc(Cl)cc1Cl , same question.
[A] fulfilled

[Q] Next up: O=Cc1ccc(Br)cc1
[A] not fulfilled
